Source: the supplement of paper PMC11246515

- test.summary: total protein half-life in vivo (active degradation + dilution); higher = more stable protein
- condition: wild type E. coli NCM3722; growth: N-lim chemostat; doubling time 12 h
experimental.endpoint: total protein half-life in vivo (h)

1) MTMYATLEEAIDAAREEFLADNPGIDAEDANVQQFNAQKYVLQDGDIMWQVEFFADEGEEGECLPMLSGEAAQSVFDGDYDEIEIRQEWQEENTLHEWDEGEFQLEPPLDTEEGRAAADEWDER	4.03
2) MQNITQSWFVQGMIKATTDAWLKGWDERNGGNLTLRLDDADIAPYHDNFHQQPRYIPLSQPMPLLANTPFIVTGSGKFFRNVQLDPAANLGIVKVDSDGAGYHILWGLTNEAVPTSELPAHFLSHCERIKATNGKDRVIMHCHATNLIALTYVLENDTAVFTRQLWEGSTECLVVFPDGVGILPWMVPGTDEIGQATAQEMQKHSLVLWPFHGVFGSGPTLDETFGLIDTAEKSAQVLVKVYSMGGMKQTISREELIALGKRFGVTPLASALAL	3.97
3) MNIRDLEYLVALAEHRHFRRAADSCHVSQPTLSGQIRKLEDELGVMLLERTSRKVLFTQAGMLLVDQARTVLREVKVLKEMASQQGETMSGPLHIGLIPTVGPYLLPHIIPMLHQTFPKLEMYLHEAQTHQLLAQLDSGKLDCVILALVKESEAFIEVPLFDEPMLLAIYEDHPWANRECVPMADLAGEKLLMLEDGHCLRDQAMGFCFEAGADEDTHFRATSLETLRNMVAAGSGITLLPALAVPPERKRDGVVYLPCIKPEPRRTIGLVYRPGSPLRSRYEQLAEAIRARMDGHFDKVLKQAV [P0ACQ4]	10.4

###

- test.summary: total protein half-life in vivo (active degradation + dilution); higher = more stable protein
- condition: E. coli NCM3722 delta-lon; growth: N-lim chemostat; doubling time 6 h
experimental.endpoint: total protein half-life in vivo

1. MKQTQRHNGIIELVKQQGYVSTEELVEHFSVSPQTIRRDLNELAEQNLILRHHGGAALPSSSVNTPWHDRKATQTEEKERIARKVAEQIPNGSTLFIDIGTTPEAVAHALLNHSNLRIVTNNLNVANTLMVKEDFRIILAGGELRSRDGGIIGEATLDFISQFRLDFGILGISGIDSDGSLLEFDYHEVRTKRAIIENSRHVMLVVDHSKFGRNAMVNMGSISMVDAVYTDAPPPVSVMQVLTDHHIQLELC [P0ACL0]	5.78 h
2. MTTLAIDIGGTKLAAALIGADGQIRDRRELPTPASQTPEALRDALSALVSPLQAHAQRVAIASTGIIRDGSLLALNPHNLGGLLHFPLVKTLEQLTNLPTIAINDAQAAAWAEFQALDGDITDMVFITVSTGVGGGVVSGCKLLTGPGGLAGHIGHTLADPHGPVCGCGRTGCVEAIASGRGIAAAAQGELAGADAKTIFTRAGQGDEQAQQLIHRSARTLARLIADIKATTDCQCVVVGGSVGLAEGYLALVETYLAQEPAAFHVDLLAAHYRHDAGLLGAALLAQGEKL	3.56 h
3. MSALFLAIPLTIFVLFVLPIWLWLHYSNRSGRSELSQSEQQRLAQLADEAKRMRERIQALESILDAEHPNWRDR [P0AFM9]	5.01 h
4. MYPVDLHMHTVASTHAYSTLSDYIAQAKQKGIKLFAITDHGPDMEDAPHHWHFINMRIWPRVVDGVGILRGIEANIKNVDGEIDCSGKMFDSLDLIIAGFHEPVFAPHDKATNTQAMIATIASGNVHIISHPGNPKYEIDVKAVAEAAAKHQVALEINNSSFLHSRKGSEDNCREVAAAVRDAGGWVALGSDSHTAFTMGEFEECLKILDAVDFPPERILNVSPRRLLNFLESRGMAPIAEFADL	4.67 h

###

- test.summary: total protein half-life in vivo (active degradation + dilution); higher = more stable protein
- condition: wild type E. coli NCM3722; growth: C-lim chemostat; doubling time 6 h
experimental.endpoint: total protein half-life in vivo (h)

1) MKGRWVKYLLMGTVVAMLAACSSKPTDRGQQYKDGKFTQPFSLVNQPDAVGAPINAGDFAEQINHIRNSSPRLYGNQSNVYNAVQEWLRAGGDTRNMRQFGIDAWQMEGADNYGNVQFTGYYTPVIQARHTRQGEFQYPIYRMPPKRGRLPSRAEIYAGALSDKYILAYSNSLMDNFIMDVQGSGYIDFGDGSPLNFFSYAGKNGHAYRSIGKVLIDRGEVKKEDMSMQAIRHWGETHSEAEVRELLEQNPSFVFFKPQSFAPVKGASAVPLVGRASVASDRSIIPPGTTLLAEVPLLDNNGKFNGQYELRLMVALDVGGAIKGQHFDIYQGIGPEAGHRAGWYNHYGRVWVLKTAPGAGNVFSG [P0A935]	2.8

###

- test.summary: total protein half-life in vivo (active degradation + dilution); higher = more stable protein
- condition: wild type E. coli NCM3722; growth: C-lim chemostat; doubling time 3 h
Measured total protein half-life in vivo of individual entries
experimental.endpoint: total protein half-life in vivo (h)

1) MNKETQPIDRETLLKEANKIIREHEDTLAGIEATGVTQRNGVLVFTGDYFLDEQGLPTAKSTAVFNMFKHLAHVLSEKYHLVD [P0AB61]	2.64
2) MTKPYVRLDKNDAAVLLVDHQAGLLSLVRDIEPDKFKNNVLALGDLAKYFNLPTILTTSFETGPNGPLVPELKAQFPDTPYIARPGNINAWDNEDFVKAVKATGKKQLIIAGVVTEVCVAFPALSAIEEGFDVFVVTDASGTFNEITRHSAWDRLSQAGAQLMTWFGVACELHRDWRNDIEGLATLFSNHIPDYRNLMTSYDTLTKQK	3.01
3) MPALDLIRPSVTAMRVIASVNADFARELKLPPHIRSLGLISADSDDVTYIAADEATKQAMVEVVYGRSLYAGAAHGPSPTAGEVLIMLGGPNPAEVRAGLDAMIAHIENGAAFQWANDAQDTAFLAHVVSRTGSYLSSTAGITLGDPMAYLVAPPLEATYGIDAALKSADVQLATYVPPPSETNYSAAFLTGSQAACKAACNAFTDAVLEIARNPIQRA	3.11
4) MSALNKKSFLTYLKEGGIYVVLLVLLAIIIFQDPTFLSLLNLSNILTQSSVRIIIALGVAGLIVTQGTDLSAGRQVGLAAVVAATLLQSMDNANKVFPEMATMPIALVILIVCAIGAVIGLINGLIIAYLNVTPFITTLGTMIIVYGINSLYYDFVGASPISGFDSGFSTFAQGFVALGSFRLSYITFYALIAVAFVWVLWNKTRFGKNIFAIGGNPEAAKVSGVNVGLNLLMIYALSGVFYAFGGMLEAGRIGSATNNLGFMYELDAIAACVVGGVSFSGGVGTVIGVVTGVIIFTVINYGLTYIGVNPYWQYIIKGAIIIFAVALDSLKYARKK	3.05

###

Measured total protein half-life in vivo of individual entries
- test.summary: total protein half-life in vivo (active degradation + dilution); higher = more stable protein
- condition: wild type E. coli NCM3722; growth: C-lim chemostat; doubling time 3 h
experimental.endpoint: total protein half-life in vivo

1) MSVIKMTDLDLAGKRVFIRADLNVPVKDGKVTSDARIRASLPTIELALKQGAKVMVTSHLGRPTEGEYNEEFSLLPVVNYLKDKLSNPVRLVKDYLDGVDVAEGELVVLENVRFNKGEKKDDETLSKKYAALCDVFVMDAFGTAHRAQASTHGIGKFADVACAGPLLAAELDALGKALKEPARPMVAIVGGSKVSTKLTVLDSLSKIADQLIVGGGIANTFIAAQGHDVGKSLYEADLVDEAKRLLTTCNIPVPSDVRVATEFSETAPATLKSVNDVKADEQILDIGDASAQELAEILKNAKTILWNGPVGVFEFPNFRKGTEIVANAIADSEAFSIAGGGDTLAAIDLFGIADKISYISTGGGAFLEFVEGKVLPAVAMLEERAKK [P0A799]	3.28 h
2) MDTELLKTFLEVSRTRHFGRAAESLYLTQSAVSFRIRQLENQLGVNLFTRHRNNIRLTAAGEKLLPYAETLMSTWQAARKEVAHTSRHNEFSIGASASLWECMLNQWLGRLYQNQDAHTGLQFEARIAQRQSLVKQLHERQLDLLITTEAPKMDEFSSQLLGYFTLALYTSAPSKLKGDLNYLRLEWGPDFQQHEAGLIGADEVPILTTSSAELAQQQIAMLNGCTWLPVSWARKKGGLHTVVDSTTLSRPLYAIWLQNSDKNALIRDLLKINVLDEVY [P0A8R9]	3.05 h

###

- test.summary: total protein half-life in vivo (active degradation + dilution); higher = more stable protein
- condition: wild type E. coli NCM3722; growth: C-lim chemostat; doubling time 3 h
experimental.endpoint: total protein half-life in vivo (h)

1. MSGLPLISRRRLLTAMALSPLLWQMNTAHAAAIDPNRIVALEWLPVELLLALGIVPYGVADTINYRLWVSEPPLPDSVIDVGLRTEPNLELLTEMKPSFMVWSAGYGPSPEMLARIAPGRGFNFSDGKQPLAMARKSLTEMADLLNLQSAAETHLAQYEDFIRSMKPRFVKRGARPLLLTTLIDPRHMLVFGPNSLFQEILDEYGIPNAWQGETNFWGSTAVSIDRLAAYKDVDVLCFDHDNSKDMDALMATPLWQAMPFVRAGRFQRVPAVWFYGATLSAMHFVRVLDNAIGGKA	2.71
2. MTAPLTLLIVEDETPLAEMHAEYIRHIPGFSQILLAGNLAQARMMIERFKPGLILLDNYLPDGRGINLLHELVQAHYPGDVVFTTAASDMETVSEAVRCGVFDYLIKPIAYERLGQTLTRFRQRKHMLESIDSASQKQIDEMFNAYARGEPKDELPTGIDPLTLNAVRKLFKEPGVQHTAETVAQALTISRTTARRYLEYCASRHLIIAEIVHGKVGRPQRIYHSG [P0AEF4]	2.24
